# Tested on: RPMI-8226 leukemia
# Test Name: NCI tumour cell line growth inhibition, 48 h
Provide the reported TGI of each item.
Respond numerically; units are µM and should not be typed.

**Q:** Give the measured TGI of COc1cccc2cc(N(C)c3nc(C)nc4c3CCC4)ccc12 .
**A:** 18.5

**Q:** Give the measured TGI of Cc1ccccc1NC(=O)CC(=O)NNC(Sc1ccccc1)c1cc(N=Nc2ccc(Br)cc2)ccc1O (configuration not stated) .
**A:** 9.06

**Q:** Give the measured TGI of NC1c2ccccc2Nc2ccccc21 .
**A:** 19.6

**Q:** Give the measured TGI of CCCCCCCCOc1ccc(/C=C/C2=[N+](CCO)CCO2)cc1 .
**A:** 5.02

**Q:** Give the measured TGI of CS(=O)(=O)Nc1cccc(-c2ccc3ncnc(Nc4ccc(F)c(Cl)c4)c3c2)c1 .
**A:** 7.59

**Q:** Give the measured TGI of CC1=C(C(=O)Nc2ccccc2)C(c2ccccc2Cl)C(C(=O)Nc2ccccc2)=C(C)N1 .
**A:** 46.9

**Q:** Give the measured TGI of CN(C)CC1CCC(CN(C)C)C(=O)C1=O (configuration not stated) .
**A:** 18.1

**Q:** Give the measured TGI of Cc1c([C@H](C)[C@@H]2NC[C@@H](C)C[C@H]2O)ccc2c1C[C@H]1[C@H]2CC=C2C[C@@H](O)CC[C@@]21C .
**A:** 17.9

**Q:** Give the measured TGI of COc1nc(C#CC2CCCCC2)nc(OC)n1 .
**A:** 6.53

**Q:** Give the measured TGI of COc1ccccc1C1C(C#N)=C(N)Oc2n[nH]c(C)c21 (configuration not stated) .
**A:** 29.6

**Q:** Give the measured TGI of Cc1ccc(-c2nc(/C=N/Nc3cc(C)nc4ccc(Cl)cc34)c(C)o2)cc1 .
**A:** 4.2

**Q:** Give the measured TGI of CCCCCCCCCCCCC(O)c1ccco1 (configuration not stated) .
**A:** 49.2

**Q:** Give the measured TGI of CC(C)c1cc(C(C)C)c(S(=O)(=O)N=[N+]=[N-])c(C(C)C)c1 .
**A:** 97.6

**Q:** Give the measured TGI of CSc1nc2nc3c(nc2c(=O)n1C)C(=O)c1ccccc1C3=O .
**A:** 1.02

**Q:** Give the measured TGI of CN=C1C=CC(=C(c2ccc(N(C)C)cc2)c2ccc(N(C)C)cc2)C=C1 .
**A:** 0.255

**Q:** Give the measured TGI of S=C1Cc2c(-c3ccc(Br)cc3)cc(-c3ccccc3)nc2-c2ccccc2N1 .
**A:** 65.8

**Q:** Give the measured TGI of CCOC(=O)Nc1ccc(S(=O)(=O)Nn2cnnc2)cc1 .
**A:** 94.3

**Q:** Give the measured TGI of c1ccc(OCCC[P+](c2ccccc2)(c2ccccc2)c2ccccc2)cc1 .
**A:** 3.66

**Q:** Give the measured TGI of CCOC(=O)C(Cc1ccc(N(CCCl)CCCl)cc1)NC(=O)C(Cc1ccccc1)NC=O (configuration not stated) .
**A:** 0.355

**Q:** Give the measured TGI of CCCCCC(O)C(O)CCC[C@H](O)[C@H]1CC[C@H]([C@H]2CC[C@H]([C@H](O)CCCCCCCCCCCCC3=C[C@H](C)OC3=O)O2)O1 (some centres not stated) .
**A:** 4.51

**Q:** Give the measured TGI of O=C(NCC(F)(F)F)Nc1cccc(-c2cnc3cc(-c4ccc(F)cc4)ccn23)c1 .
**A:** 17.9

**Q:** Give the measured TGI of COc1ccc(C(=O)/C=C/c2cc(-c3cc(OC)c(OC)c(OC)c3)n[nH]2)cc1 .
**A:** 2.49
